Test system: Bacillus thuringiensis
Assay: Antibacterial activity against Bacillus thuringiensis at 2 mg/ml after 24 hrs by agar diffusion assay
Assay type: functional
Settings: read-out: DIZ
Measured zone of inhibition at 2000 µg/mL accompanies every entry in the list below.
The response must be a number in mm with no trailing unit.

O=C1C2C3c4ccccc4C(c4ccccc43)C2C(=O)N2C(=O)c3sc(=S)n(-c4ccccc4)c3N=CN12 (stereo not given)    13
O=C(N[C@H](CO)[C@H](O)c1ccc([N+](=O)[O-])cc1)C(Cl)Cl [CHLORAMPHENICOL]    20
N#CC(C(=O)N1NC(=O)C2C3c4ccccc4C(c4ccccc43)C2C1=O)=C1SCCCS1 (stereo not given)    15
N#CC(Br)(Br)C(=O)N1NC(=O)C2C3c4ccccc4C(c4ccccc43)C2C1=O (stereo not given)    27
N#CC(C(=O)N1NC(=O)C2C3c4ccccc4C(c4ccccc43)C2C1=O)=C1SCCS1 (stereo not given)    13

Inquiry: Quick check: zone of inhibition at 2000 µg/mL of CC1=Nc2c(s/c(=N\N)n2-c2ccccc2)C(=O)N2C(=O)C3C4c5ccccc5C(c5ccccc54)C3C(=O)N12 (stereo not given) ?
Reply text: 19

Inquiry: Quick check: zone of inhibition at 2000 µg/mL of N#CC(Br)C(=O)N1NC(=O)C2C3c4ccccc4C(c4ccccc43)C2C1=O (stereo not given) ?
Reply text: 16

Inquiry: Quick check: zone of inhibition at 2000 µg/mL of CC1=Nc2c(sc(=S)n2-c2ccccc2)C(=O)N2C(=O)C3C4c5ccccc5C(c5ccccc54)C3C(=O)N12 (stereo not given) ?
Reply text: 16

Inquiry: Quick check: zone of inhibition at 2000 µg/mL of CSC(=S)C(C#N)C(=O)N1NC(=O)C2C3c4ccccc4C(c4ccccc43)C2C1=O (stereo not given) ?
Reply text: 22

Inquiry: Quick check: zone of inhibition at 2000 µg/mL of O=C1NN(C(=O)c2cc3ccccc3oc2=O)C(=O)C2C3c4ccccc4C(c4ccccc43)C12 (stereo not given) ?
Reply text: 16
